B1: HDAC6 (parent)
chain: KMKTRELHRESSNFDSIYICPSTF

# Variants of: B1
# assay procedure: protein stability index of a GFP-peptide fusion (GPS, HEK-293T) (PSI 1-6); higher = more stable;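 also: lentivirally expressed fusions sorted by FACS into six bins by GFP to DsRed ratio, PSI derived from sequencing read proportions per bin multiplied by bin number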
# condition: c terminus: a fixed tail appended
measured attribute: protein stability index
Respond using a number only.

Reference set, count: 10
> print(dat)
                   primary.sequence  meas.value
 1   KMKYRELHRESSNFDSIYICPSTF [T4Y]           2
 2   KMKTREHHRESSNFDSIYICPSTF [L7H]        3.02
 3  KMKTRELHRESSNFDSIYLCPSTF [I19L]        3.14
 4   KMKARELHRESSNFDSIYICPSTF [T4A]        2.29
 5  KMKTRELHRESSNFDSIYICPSTV [F24V]        2.82
 6  KMKTRELHRESSNFDSICICPSTF [Y18C]        2.29
 7  KMKTRELHRCSSNFDSIYICPSTF [E10C]        2.18
 8   KMHTRELHRESSNFDSIYICPSTF [K3H]        2.04
 9   KMKTMELHRESSNFDSIYICPSTF [R5M]         2.4
10   KHKTRELHRESSNFDSIYICPSTF [M2H]        2.43

Specify measured protein stability index for KMYTRELHRESSNFDSIYICPSTF [K3Y] .
2.06

Specify measured protein stability index for KMKTRELHRESSNFDSIYIFPSTF [C20F] .
2.21

Specify measured protein stability index for KMKTRELHDESSNFDSIYICPSTF [R9D] .
2.45

Specify measured protein stability index for KMKTRHLHRESSNFDSIYICPSTF [E6H] .
1.96

Specify measured protein stability index for KMKTRELHRESSNRDSIYICPSTF [F14R] .
1.7

Specify measured protein stability index for KMKTRELHVESSNFDSIYICPSTF [R9V] .
2.85
